Test system: CCRIS mutagenicity, Ames/micronucleus/aberration tests
assay_details: CCRIS mutagenicity studies
condition_label: Test System: AMES SALMONELLA TYPHIMURIUM; Strain/Indicator: TA98; Metabolic Activation: RAT, LIVER, S-9, PHENOBARBITAL AND BETA-NAPHTHOFLAVONE; Method: PREINCUBATION
Calls of active or inactive are those of the source. How the calls were made is not given here.
Hi there, use one of these labels in your reply, thanks! yes = active, no = inactive

Recorded results for 5 compounds are shown here.
compound_smiles	cat
COc1ccc2c(c1)C(=O)c1c(OC)c(OC)cc3ccnc-2c13	yes
COc1ccc(Cc2cnc(N)nc2N)cc1OC	no
O	no
COc1c(O)cc2c3c1-c1ccccc1C[C@H]3N(C)CC2	yes
CC(=O)O[C@H]1[C@H]2O[C@H]2C2=CC(=O)[C@]3(C[C@]2(C)[C@H]1C)O[C@]3(C)C=O	no

Just curious, what result did Nc1cc(Cl)ccc1O get here?
no

Just curious, what result did COc1ccc2c(cc3c4c(cc5c(c42)OCO5)CCN3C)c1OC get here?
yes

Just curious, what result did COc1ccc2c(c1)C(=O)c1nccc3cc4c(c-2c13)OCO4 get here?
yes

###

Test system: CCRIS mutagenicity, Ames/micronucleus/aberration tests
assay_details: CCRIS mutagenicity studies
condition_label: Test System: CHINESE HAMSTER OVARY; Strain/Indicator: CHO-K1-BH4 (HGPRT); Metabolic Activation: RAT, LIVER, S-9, AROCLOR; Method: SUSPENSION/PLATE
Activity calls are given as the source filed them. The rule behind the calls is not given here.
Hi there, use one of these labels in your reply, thanks! active, inactive

compound_smiles	cat
CC(=O)Nc1ccc2c(c1)Cc1ccccc1-2	active
Cc1c2ccccc2c(C)c2c1ccc1ccccc12	active
O=[N+]([O-])c1ccc2c(c1)Cc1ccccc1-2	active

Just curious, what result did CN(C)CCN(Cc1cccs1)c1ccccn1 get here?
inactive

Just curious, what result did O=NN1CCCC1 get here?
active

###

System: CCRIS mutagenicity, Ames/micronucleus/aberration tests
assay_details: CCRIS mutagenicity studies
condition_label: Test System: AMES SALMONELLA TYPHIMURIUM; Strain/Indicator: TA1535; Metabolic Activation: RAT LIVER S-9, PHENOBARBITAL AND BETA-NAPHTHOFLAVONE; Method: PREINCUBATION
Description: The CCRIS database contains chemical records with carcinogenicity, mutagenicity, tumor promotion, and tumor inhibition test results. It was developed by the National Cancer Institute (NCI). Data are derived from studies cited in primary journals, current awareness tools, NCI reports, and other sources. Test results have been reviewed by experts in carcinogenesis and mutagenesis. CCRIS provides historical information from the years 1985 - 2011. It is no longer updated. […]
Activity calls are given as the source filed them. No rule for the calls is given here.
Hi there, use one of these labels in your reply, thanks! True for active, False for inactive

compound	cat
CC(C)Nc1ccc(Nc2ccccc2)cc1	False

Just curious, what result did CCNCCN get here?
False

###

System: CCRIS mutagenicity, Ames/micronucleus/aberration tests
assay_details: CCRIS mutagenicity studies
condition_label: Test System: AMES SALMONELLA TYPHIMURIUM; Strain/Indicator: TA100; Metabolic Activation: RAT, LIVER, S-9, PHENOBARBITAL AND 5,6-BENZOFLAVONE; Method: PREINCUBATION
Activity calls are given as the source filed them. How the calls were made is not given here.
Hi there, use one of these labels in your reply, thanks! 1 (yes) = active, 0 (no) = inactive

Recorded results for 8 molecules are shown here.
compound_smiles	cat
Cc1ccc2ncccc2c1	1 (yes)
Fc1cccc2c1ccc1ncccc12	1 (yes)
Fc1ccc(F)c2c1ccc1cccnc12	1 (yes)
O=C(O)/C=C/C=C/C(=O)O	0 (no)
CCOC(=O)[C@H](CCc1ccccc1)N[C@@H](C)C(=O)N1[C@H](C(=O)O)C[C@H]2CCCC[C@@H]21	0 (no)
c1cnc2c(c1)ccc1ncccc12	1 (yes)
CC1=CC(=O)c2ccccc2C1=O	0 (no)
CNC(=C[N+](=O)[O-])NCCSCc1ccc(CN(C)C)o1	0 (no)

Just curious, what result did Cc1ccc2cccnc2c1 get here?
1 (yes)

Just curious, what result did c1ccc2c(c1)ccc1c3ccccc3ccc21 get here?
1 (yes)

Just curious, what result did Cc1[nH]c(=O)c(C#N)cc1-c1ccncc1 get here?
0 (no)

Just curious, what result did O=C(O)CO.[NH2-].[NH2-].[Pt+2] get here?
1 (yes)

###

Tested on: CCRIS mutagenicity, Ames/micronucleus/aberration tests
assay_details: CCRIS mutagenicity studies
condition_label: Test System: AMES SALMONELLA TYPHIMURIUM; Strain/Indicator: TA98; Metabolic Activation: NONE; Method: PREINCUBATION
Calls of active or inactive are those of the source. How the calls were made is not given here.
Hi there, use one of these labels in your reply, thanks! true (1) (active), false (0) (inactive)

Just curious, what result did C1CCNC1 get here?
false (0)

Just curious, what result did Cc1ccc(N=C=O)cc1N=C=O get here?
false (0)

###

Tested on: CCRIS mutagenicity, Ames/micronucleus/aberration tests
assay_details: CCRIS mutagenicity studies
condition_label: Test System: AMES SALMONELLA TYPHIMURIUM; Strain/Indicator: TA1535; Metabolic Activation: RAT, LIVER, S-9, AROCLOR 1254; Method: PREINCUBATION
Activity calls are given as the source filed them. The rule behind the calls is not given here.
Hi there, use one of these labels in your reply, thanks! active, inactive

Just curious, what result did CCCCCCc1ccc(O)cc1O get here?
inactive

Just curious, what result did NC[N+](=O)[O-] get here?
inactive

Just curious, what result did OB(O)O get here?
inactive

Just curious, what result did O=C(O)C1C(C(=O)O)C2(Cl)C(Cl)=C(Cl)C1(Cl)C2(Cl)Cl (centres undefined) get here?
inactive

Just curious, what result did COc1cc(-c2ccc(N)c(OC)c2)ccc1N get here?
inactive

Just curious, what result did OC1CCCCC1 get here?
inactive

Just curious, what result did C=CCc1ccc(O)c(OC)c1 get here?
inactive

###

Tested on: CCRIS mutagenicity, Ames/micronucleus/aberration tests
assay_details: CCRIS mutagenicity studies
condition_label: Test System: AMES SALMONELLA TYPHIMURIUM; Strain/Indicator: TA100; Method: STANDARD PLATE
Calls of active or inactive are those of the source. How the calls were made is not given here.
Hi there, use one of these labels in your reply, thanks! Y = active, N = inactive

Recorded results for 3 molecules are shown here.
compound_smiles	cat
Cc1c2ccccc2c(C)c2c1ccc1ccccc12	Y
CCc1c2ccccc2c(CC)c2c1ccc1ccccc12	N
CCc1c2ccccc2cc2ccc3ccccc3c12	N

Query molecule follows.
Just curious, what result did CN(C)CCN(Cc1cccs1)c1ccccn1 get here?
N

###

System: CCRIS mutagenicity, Ames/micronucleus/aberration tests
assay_details: CCRIS mutagenicity studies
condition_label: Test System: AMES SALMONELLA TYPHIMURIUM; Strain/Indicator: TA97; Metabolic Activation: NONE; Method: PREINCUBATION
Activity calls are given as the source filed them. No rule for the calls is given here.
Hi there, use one of these labels in your reply, thanks! t for active, f for inactive

Recorded results for 5 compounds are shown here.
compound_smiles	tested_system	cat
NS(=O)(=O)c1cc2c(cc1Cl)NC=NS2(=O)=O	CCRIS mutagenicity, Ames/micronucleus/aberration tests	f
O[C@@H]1[C@H]2O[C@H]2c2c(ccc3c2ccc2ccccc23)[C@H]1O	CCRIS mutagenicity, Ames/micronucleus/aberration tests	t
Nc1cc([N+](=O)[O-])cc(S(=O)(=O)O)c1O	CCRIS mutagenicity, Ames/micronucleus/aberration tests	f
CCO	CCRIS mutagenicity, Ames/micronucleus/aberration tests	f
CCCCCCCCCCCCCl	CCRIS mutagenicity, Ames/micronucleus/aberration tests	f

Just curious, what result did CCCCOP(=O)(OCCCC)Oc1ccccc1 get here?
f

Just curious, what result did CC(C)(C)c1ccc(O)c(O)c1 get here?
f

###

Tested on: CCRIS mutagenicity, Ames/micronucleus/aberration tests
assay_details: CCRIS mutagenicity studies
condition_label: Test System: AMES SALMONELLA TYPHIMURIUM; Strain/Indicator: TA97; Metabolic Activation: RAT, LIVER, S-9, AROCLOR 1254; Method: STANDARD PLATE
Active and inactive are the calls of the source. The rule behind the calls is not given here.
Hi there, use one of these labels in your reply, thanks! active, inactive

Recorded results for 5 compounds are shown here.
compound	cat
Oc1cc(Cl)c(Cl)cc1Cl	active
Cc1cc(Cl)ccc1OCCCC(=O)O	inactive
CN(N=O)C(=O)N[C@@H](C=O)[C@@H](O)[C@H](O)[C@H](O)CO	inactive
Cc1cc(C(C)(C)C)c(O)c(C(C)(C)C)c1	inactive
C[C@@H]1O[C@@H](O[C@H]2[C@H](O[C@H]3[C@H](O[C@H]4CC[C@@]5(C)[C@@H](CC[C@]6(C)[C@@H]5CC=C5[C@@H]7CC(C)(C)C[C@@H](O)[C@]7(C)CC[C@]56C)[C@@]4(C)CO)O[C@H](C(=O)O)[C@@H](O)[C@@H]3O)O[C@H](CO)[C@H](O)[C@@H]2O)[C@H](O)[C@H](O)[C@H]1O	inactive

Just curious, what result did Nc1ncnc2c1ncn2C(c1ccccc1)c1ccccc1 get here?
inactive

Just curious, what result did CNCCN(Cc1ccc(OC)cc1)c1ccccn1 get here?
inactive

Just curious, what result did BrC(Br)C(Br)Br get here?
active

Just curious, what result did CN(C)CCc1cc(O)ccc1CNc1ccccn1 get here?
inactive

Just curious, what result did ClC(Cl)(Cl)Cl get here?
inactive

Just curious, what result did CN1CCCC1=O get here?
inactive
